tested-target: mANO1 (Mus musculus, UniProt Q8BHY3, S527P)
Sequence (Q8BHY3 whole entry S527P): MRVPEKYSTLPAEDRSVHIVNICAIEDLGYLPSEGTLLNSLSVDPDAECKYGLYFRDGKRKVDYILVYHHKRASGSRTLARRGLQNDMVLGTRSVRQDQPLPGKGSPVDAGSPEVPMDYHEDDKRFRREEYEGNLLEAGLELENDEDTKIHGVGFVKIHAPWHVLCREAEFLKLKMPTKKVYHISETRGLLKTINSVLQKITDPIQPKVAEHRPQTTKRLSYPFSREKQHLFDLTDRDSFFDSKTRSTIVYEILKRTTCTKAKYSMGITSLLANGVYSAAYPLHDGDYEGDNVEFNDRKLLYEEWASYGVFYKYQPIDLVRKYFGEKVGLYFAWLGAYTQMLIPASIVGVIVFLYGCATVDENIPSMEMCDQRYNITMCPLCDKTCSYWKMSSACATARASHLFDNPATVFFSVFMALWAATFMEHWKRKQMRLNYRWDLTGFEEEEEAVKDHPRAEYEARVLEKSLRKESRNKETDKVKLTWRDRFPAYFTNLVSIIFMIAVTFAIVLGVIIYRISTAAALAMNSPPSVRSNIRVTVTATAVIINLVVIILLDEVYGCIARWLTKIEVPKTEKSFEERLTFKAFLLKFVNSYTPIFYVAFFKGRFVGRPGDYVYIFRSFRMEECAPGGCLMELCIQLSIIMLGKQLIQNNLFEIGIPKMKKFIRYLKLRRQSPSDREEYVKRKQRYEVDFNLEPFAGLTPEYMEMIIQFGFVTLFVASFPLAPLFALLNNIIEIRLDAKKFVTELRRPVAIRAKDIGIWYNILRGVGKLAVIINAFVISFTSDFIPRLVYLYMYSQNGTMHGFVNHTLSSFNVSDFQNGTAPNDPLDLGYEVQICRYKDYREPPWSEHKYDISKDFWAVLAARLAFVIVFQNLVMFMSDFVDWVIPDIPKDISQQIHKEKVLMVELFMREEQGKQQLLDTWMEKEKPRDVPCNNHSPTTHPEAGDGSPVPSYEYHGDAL
assay-details: Ca2+ activation of macroscopic currents in inside-out patches from ANO1/ETAR-HEK cells
Assay type: biochemical
Set-up: expressed in transfected cells
condition-label: depolarized membrane potential +60 mV; inside-out patches; read-out: EC50 for ANO1 activation
endpoint: EC50 (nM)

In [3]: df
Out[3]:
         compound  quantitative_result
0  [Ca+2] [Ca^2+]                  400
